Property: Activity; scope: individual molecules
- Tested on: UACC-903
- test method notes: Induction of apoptosis in human UACC-903 cells assessed as early apoptotic cells at 1 uM after 24 hrs using annexin-V-PE/7-AAD double staining by flow cytometry
- Assay type: functional

- compound smiles: "O=C1c2cccc3cccc(c23)C(=O)N1CCN=C=S"
  Activity / %: 12.4
- compound smiles: "O=C1c2cccc3cccc(c23)C(=O)N1CCCCCCN=C=S"
  Activity / %: 12.9
- compound smiles: "O=C1c2cccc3cccc(c23)C(=O)N1CCCCN=C=S"
  Activity / %: 21.1
- compound smiles: "N=C(N)SCCN1C(=O)c2cccc3cccc(c23)C1=O"
  Activity / %: 9.11
- compound smiles: "O=C1c2cccc3cc([N+](=O)[O-])cc(c23)C(=O)N1CCN=C=S"
  Activity / %: 17.9
- compound smiles: "N=C(N)SCCN1C(=O)c2cccc3cc([N+](=O)[O-])cc(c23)C1=O"
  Activity / %: 20.1

====

We begin with a simple list: items and their reported growth inhibition (GI).
- Test system: UACC-903
- test method notes: Antitumor activity against human UACC-903 cells xenografted in athymic Harlan Sprague-Dawley nude mouse assessed as reduction in tumor growth at 8.5 to 10 mg/kg, ip administered thrice per week for 24 days measured after 21 days
- Type: functional
- details: dose mg/kg 8.5-10; route intraperitoneal

- compound smiles: "O=C1c2cccc3cc([N+](=O)[O-])cc(c23)C(=O)N1CCN=C=S"
  units label: "%"
  growth inhibition (GI): 60
- compound smiles: "O=C1c2cccc3cccc(c23)C(=O)N1CCN=C=S"
  units label: "%"
  growth inhibition (GI): 30
- compound smiles: "O=C1c2cccc3cccc(c23)C(=O)N1CCCCN=C=S"
  units label: "%"
  growth inhibition (GI): 30
- compound smiles: "O=C1c2cccc3cccc(c23)C(=O)N1CCCCCCN=C=S"
  units label: "%"
  growth inhibition (GI): 50

====

The following molecules are listed with their measured Activity values.
- Test system: UACC-903
- test method notes: Induction of apoptosis in human UACC-903 cells assessed as late apoptotic cells at 25 uM after 24 hrs using annexin-V-PE/7-AAD double staining by flow cytometry
- Type: functional

- compound smiles: "N=C(N)SCCN1C(=O)c2cccc3cccc(c23)C1=O"
  system name: "UACC-903"
  Activity: "9.64%"
- compound smiles: "O=C1c2cccc3cccc(c23)C(=O)N1CCCCN=C=S"
  system name: "UACC-903"
  Activity: "19.3%"
- compound smiles: "O=C1c2cccc3cc([N+](=O)[O-])cc(c23)C(=O)N1CCN=C=S"
  system name: "UACC-903"
  Activity: "18.6%"
- compound smiles: "O=C1c2cccc3cccc(c23)C(=O)N1CCN=C=S"
  system name: "UACC-903"
  Activity: "7.98%"
- compound smiles: "N=C(N)SCCN1C(=O)c2cccc3cc([N+](=O)[O-])cc(c23)C1=O"
  system name: "UACC-903"
  Activity: "12.3%"
- compound smiles: "O=C1c2cccc3cccc(c23)C(=O)N1CCCCCCN=C=S"
  system name: "UACC-903"
  Activity: "8.56%"

====

- test method notes: Cytotoxicity against human A375-S2 cells after 24 hrs by MTS assay
- Type: functional, cell-based
- details: A375-S2, 24 h
pIC50: −log10 of the molar value.
observation type: pIC50

- compound smiles: "N=C(N)SCCN1C(=O)c2cccc3cccc(c23)C1=O"
  measured result: 5.17
- compound smiles: "N=C(N)SCCN1C(=O)c2cccc3cc([N+](=O)[O-])cc(c23)C1=O"
  measured result: 4.73
- compound smiles: "O=C1c2cccc3cccc(c23)C(=O)N1CCCCN=C=S"
  measured result: 5.16
- compound smiles: "O=C1c2cccc3cccc(c23)C(=O)N1CCCCCCN=C=S"
  measured result: 5.29
- compound smiles: "O=C1c2cccc3cccc(c23)C(=O)N1CCN=C=S"
  measured result: 5.10
- compound smiles: "O=C1c2cccc3cc([N+](=O)[O-])cc(c23)C(=O)N1CCN=C=S"
  measured result: 5.10
